The measurements presented in this section are drawn from patent US6110962A.

Biological target: Human recombinant PTP1B (Homo sapiens, UniProt P18031)
Construct: made in house
Sequence (P18031 whole entry): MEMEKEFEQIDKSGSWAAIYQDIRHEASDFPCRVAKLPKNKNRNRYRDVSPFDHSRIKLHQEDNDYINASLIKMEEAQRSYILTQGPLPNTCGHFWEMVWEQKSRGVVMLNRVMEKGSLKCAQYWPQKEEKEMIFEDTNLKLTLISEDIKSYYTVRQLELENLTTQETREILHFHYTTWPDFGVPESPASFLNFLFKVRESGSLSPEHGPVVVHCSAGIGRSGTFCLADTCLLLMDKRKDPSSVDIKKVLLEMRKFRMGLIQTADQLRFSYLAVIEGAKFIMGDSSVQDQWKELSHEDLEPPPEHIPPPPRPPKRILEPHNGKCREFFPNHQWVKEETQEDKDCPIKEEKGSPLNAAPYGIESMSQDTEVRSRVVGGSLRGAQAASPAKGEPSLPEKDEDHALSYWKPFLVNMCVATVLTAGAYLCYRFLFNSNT
Assay type: biochemical
Details: read-out: IC50
Could you please mark MET for values of IC50 below 900 nM and NOT MET for values at or above it?

O=C(O)C[C@@H](Oc1c(Br)cc(-c2c3ccccc3c(Br)c3sc4ccccc4c23)cc1Br)C(=O)O ... NOT MET
Oc1cc(-c2c3ccccc3c(Br)c3sc4ccccc4c23)cc(Br)c1O ... MET

Input: Strictly below 900 nM in IC50? "Oc1c(F)ccc(-c2c3ccccc3c(Br)c3sc4ccccc4c23)c1F"
Output: NOT MET

###

Target: Human recombinant PTP1B (Homo sapiens, UniProt P18031)
Construct: made in house
Format: biochemical
Details: read-out: IC50
parameter measured: log10 IC50 (log10 of the value in nM)
# log10 transformed; quantity=IC50; unit=nM

Past entries and their recorded results:
O=C(O)COc1cc(-c2c3ccccc3c(Br)c3sc4ccccc4c23)c(Br)cc1Br ... 2.81
Oc1c(Br)cc(-c2c3ccccc3c(Br)c3sc4ccccc4c23)cc1Br ... 2.58
Oc1ccc(-c2c3ccccc3cc3sc4ccccc4c23)cc1O ... 2.74
C[C@@H](Oc1c(Br)cc(-c2c3ccccc3c(Sc3ccccc3)c3sc4ccccc4c23)cc1Br)C(=O)O ... 1.66
O=C(O)[C@@H](Cc1ccccc1)Oc1c(Br)cc(-c2c3ccccc3c(I)c3sc4ccccc4c23)cc1Br ... 1.70
O=C(O)[C@@H](Cc1ccccc1)Oc1c(Br)cc(-c2c3ccccc3c(Br)c3sc4ccccc4c23)cc1Br [Example 108] ... 1.79
N#CCOc1c(Br)cc(-c2c3ccccc3c(Br)c3sc4ccccc4c23)cc1Br ... 3.09

Attention now turns to another entry.
The reported Human recombinant PTP1B (Homo sapiens, UniProt P18031) log10 IC50 of "O=C(O)[C@@H](CCN1C(=O)c2ccccc2C1=O)Oc1ccc(-c2c3ccccc3c(Br)c3sc4ccccc4c23)cc1" is 2.32

###

Documented % Change from Control across a set of compounds
System: rat hepatic microsomal PTPases
Conditions: PTPase activity, compound at 50 μM
Write the value in % as a bare number.

Past entries and their recorded results:
O=C(O)[C@@H](Cc1ccccc1)Oc1c(Br)cc(-c2c3ccccc3c(I)c3sc4ccccc4c23)cc1Br ... -63.42
Oc1c(Br)cc(-c2c3ccccc3c(Sc3ccccc3)c3sc4ccccc4c23)cc1Br ... -15.90
O=C(O)[C@@H](Cc1ccccc1)Oc1c(Cl)cc(-c2c3ccccc3c(Br)c3sc4ccccc4c23)cc1Cl ... -72.14

The compound listed as "O=P(O)(O)Oc1c(Br)cc(-c2c3ccccc3c(Br)c3sc4ccccc4c23)cc1Br" has a reported % Change from Control of -69.35

###

Target: Human recombinant PTP1B (Homo sapiens, UniProt P18031)
Construct: made in house
Type: biochemical
Conditions: read-out: IC50
Counter-ions that a name gives are not always drawn.
parameter measured: pIC50
The read-out pIC50 is expressed as -log10 of concentration in moles per litre.

O=C(O)[C@H](Cc1ccccc1)Oc1c(Br)cc(-c2c3ccccc3c(Br)c3sc4ccccc4c23)cc1Br ... 7.21
C[C@@H](Oc1c(I)cc(-c2c3ccccc3cc3sc4ccccc4c23)cc1I)C(=O)O ... 6.51
O=C(O)[C@@H](Cc1c[nH]cn1)Oc1c(Br)cc(-c2c3ccccc3c(Br)c3sc4ccccc4c23)cc1Br [Example 120, hydrochloride] ... 6.27
CC(C)c1cc(-c2c3ccccc3c(Br)c3sc4ccccc4c23)cc(C(C)C)c1OCC(=O)O ... 6.90

The molecule listed as "N#Cc1c2ccccc2c(-c2cc(Br)c(O[C@@H](Cc3ccccc3)C(=O)O)c(Br)c2)c2c1sc1ccccc12" has a reported pIC50 of 6.55

The molecule listed as "C[C@H](CC(=O)O)Oc1c(Br)cc(-c2c3ccccc3c(Br)c3sc4ccccc4c23)cc1Br" has a reported pIC50 of 6.42

The molecule listed as "Cc1cc(-c2c3ccccc3c(C)c3sc4ccccc4c23)cc(C)c1O[C@H](Cc1ccccc1)C(=O)O" has a reported pIC50 of 6.20

The molecule listed as "C[C@H](Oc1cc(-c2c3ccccc3c(Br)c3sc4ccccc4c23)ccc1Br)C(=O)O" has a reported pIC50 of 5.93

The molecule listed as "CC(=O)Oc1ccc(-c2c3ccccc3c(Br)c3sc4ccccc4c23)cc1" has a reported pIC50 of 5.93

The molecule listed as "NC(=O)COc1c(Br)cc(-c2c3ccccc3c(Br)c3sc4ccccc4c23)cc1Br" has a reported pIC50 of 6.18

The molecule listed as "COC(=O)[C@H](Cc1ccccc1)Oc1c(Br)cc(-c2c3ccccc3c(Br)c3sc4ccccc4c23)cc1Br" has a reported pIC50 of 5.82

The molecule listed as O=C(O)C(Cc1c[nH]c2ccccc12)Oc1c(Br)cc(-c2c3ccccc3c(Br)c3sc4ccccc4c23)cc1Br (racemic) has a reported pIC50 of 7.44

The molecule listed as "O=C(O)[C@@H](Cc1ccccc1)Oc1c(Br)cc(-c2c3ccccc3c(Br)c3oc4ccccc4c23)cc1Br" has a reported pIC50 of 7.08

The molecule listed as O=C(O)[C@@H](Cc1ccccc1)Oc1c(Br)cc(-c2c3ccccc3c(Br)c3sc4ccccc4c23)cc1Br [Example 109, sodium salt] has a reported pIC50 of 7.15

The molecule listed as "O=C(O)[C@@H](Cc1ccccc1)Oc1c(Br)cc(-c2c3c(c(Br)c4ccccc24)S(=O)(=O)c2ccccc2-3)cc1Br" has a reported pIC50 of 5.86

The molecule listed as "O=C(O)[C@@H](Cc1ccccc1)Oc1ccc(-c2c3ccccc3cc3sc4ccccc4c23)cc1" has a reported pIC50 of 5.82

The molecule listed as "O=C(O)[C@H](Cc1ccccc1)Oc1ccc(-c2c3ccccc3c(Br)c3sc4ccccc4c23)cc1" has a reported pIC50 of 6.23

The molecule listed as "O=P(O)(O)COc1c(Br)cc(-c2c3ccccc3c(Br)c3sc4ccccc4c23)cc1Br" has a reported pIC50 of 6.84

The molecule listed as "Oc1ccc(-c2c3ccccc3c(Br)c3sc4ccccc4c23)cc1O" has a reported pIC50 of 6.72

The molecule listed as O=C(O)C(Cc1cccnc1)Oc1c(Br)cc(-c2c3ccccc3c(Br)c3sc4ccccc4c23)cc1Br (centres unmarked) has a reported pIC50 of 6.47

The molecule listed as "COc1c2ccccc2c(-c2cc(Br)c(O[C@H](Cc3ccccc3)C(=O)O)c(Br)c2)c2c1sc1ccccc12" has a reported pIC50 of 6.53

The molecule listed as "Cc1c2ccccc2c(-c2cc(Br)c(O[C@H](Cc3ccccc3)C(=O)O)c(Br)c2)c2c1sc1ccccc12" has a reported pIC50 of 6.90

The molecule listed as "Oc1c(Br)cc(-c2c3ccccc3c(Sc3ccccc3)c3sc4ccccc4c23)cc1Br" has a reported pIC50 of 6.46

The molecule listed as "O=C(O)[C@H](Oc1c(Br)cc(-c2c3ccccc3c(Br)c3sc4ccccc4c23)cc1Br)c1ccccc1" has a reported pIC50 of 6.99

The molecule listed as "CC(C)(Oc1c(Br)cc(-c2c3ccccc3c(Br)c3sc4ccccc4c23)cc1Br)C(=O)O" has a reported pIC50 of 6.32

The molecule listed as O=C(O)C(Cc1ccc2ccccc2c1)Oc1c(Br)cc(-c2c3ccccc3c(Br)c3sc4ccccc4c23)cc1Br (centres unmarked) has a reported pIC50 of 7.59

The molecule listed as "O=C(O)COc1ccc(-c2c3ccccc3c(Br)c3sc4ccccc4c23)cc1" has a reported pIC50 of 5.77

The molecule listed as "O=C(O)[C@@H](Cc1ccccc1)Oc1c(Cl)cc(-c2c3ccccc3c(Br)c3sc4ccccc4c23)cc1Cl" has a reported pIC50 of 6.10

The molecule listed as "O=C(O)[C@@H](Cc1ccccc1)Oc1c(Br)cc(-c2c3ccccc3c(OCc3ccccc3)c3sc4ccccc4c23)cc1Br" has a reported pIC50 of 7.35

###

Test system: rat hepatic microsomal PTPases
Settings: PTPase activity, compound at 50 μM
Documented % Change from Control across a set of compounds
Write the value in % as a bare number.

Past entries and their recorded results:
O=C(O)C(Cc1ccc(F)cc1)Oc1c(Br)cc(-c2c3ccccc3c(Br)c3sc4ccccc4c23)cc1Br (centres unmarked) ... -82.25
O=C(O)COc1c(Br)cc(-c2c3c(c(Br)c4ccccc24)S(=O)(=O)c2ccccc2-3)cc1Br ... -74.87
Cc1cc(-c2c3ccccc3c(C)c3sc4ccccc4c23)cc(C)c1O ... -38.31
Brc1cc(-c2c3ccccc3c(Br)c3sc4ccccc4c23)cc(Br)c1O[C@H](Cc1ccccc1)c1nnn[nH]1 ... -70.95
COc1c2ccccc2c(-c2cc(Br)c(O)c(Br)c2)c2c1sc1ccccc12 ... -47.53

The compound listed as CCOP(=O)(OCC)C(CCc1ccccc1)Oc1c(Br)cc(-c2c3ccccc3c(Br)c3sc4ccccc4c23)cc1Br (centres unmarked) has a reported % Change from Control of -8.03

The compound listed as "Oc1cccc(-c2c3ccccc3c(Br)c3sc4ccccc4c23)c1" has a reported % Change from Control of -21.28
